# methodDescription: cell-free cyclolavandulylation activity screening of prenyltransferases, substrate tryptophan
# Format: biochemical
# condition: cell-free reaction with CLDS and DMAPP (CLPP donor), 28° C., 48 hours, QTOF LC/MS, with vs without prenyltransferase
measurementType: presence of cyclolavandulylated product, Aromatic Compound (Substrate) Tryptophan

Look over these answered cases.
MzPT2: prenyltransferase, Accession: WP_135330626.1, SEQ ID NO: 19 (protein, listed as Streptomyces sp.) MSGTAVEKLYSAIEETAGLLDVTCSRDKVWPVLASFEDAIPQAAILFRVATDKRHAGELNLHFMMLPGDVDPYALALSNDLMAKTEHPVGSLLSDIAERFPVESYGIDFGVVKGFQKTWSCFPGNSMQSLSKLAEVPSVPSSLAGNLDFFSRYGLDENVTLVGIDFEHRTMNVYFGEVAELLEPDAVKSMLRDLEMPEPSEQLLNFAKQSFGFYATLSWDSPRIERFCYAAIAPDPMALLDQVEPKIEHFLKTVPYGVDDPKAVYAATSPNDGEFYKIQSYYQWRPRLVNHMHTSVSDSGE :: No
AbPT: prenyltransferase, Accession: KPI30840.1, SEQ ID NO: 9 (protein, listed as Actinomyces sp.) MSGKANIQRVYSAVEEAADLLDIACSREQMWPTLTAFEDVLTDGAIVFNMVTSGGRIGDLSFDFTLPPSAGDPYELALAHGLVDETDHPVRALFSDIQARFPLQAYGVDHGITSGFHKTYAFFPLGDLQSVAELADIPSMPSGLSEHVTSFAAYGLDDKVSAIAIDYARRTWNVYFNGLSAPHVQRTAVLSMLSEFGLPEPSAQLLEFIETSSALYPTFGWDSSKIERISFSTRTTDPVALPARIEPKLEKFARSAPHVYEGERVLVYAGALSPSEEYYKLATYYQMTAAAHDRVRSAN :: Yes
MzPT1: prenyltransferase, Accession: WP_135330628.1, SEQ ID NO: 18 (protein, listed as Streptomyces sp.) MSRTAEVERVYSAIEEAAGLLSAVCSRDNVWPVLDAFGDELAEAMIVFGGQAGDRHAGELDYSFTVPSSIGNPYPHALSRGLVTETDHPVGSVLSDIQGRWPIKEHFVDAGVVGGFKKLYAHFPDNMQKVSDIADIPSMPRAVAENAALFARYGLDQVAMIGVDYRHKTVSVYFHFGPDGRPEPSTIRALLSDLGMPEPDEPTLEFAHKSLRVNITLGWETGDVIRVAFAPPPVRGLDPSALPGQLTPRMEEFARVSPRAYAGGRVNMYAVKWMRGEEFHEVCTYYQLTPWYEKILTDAPKEQQG :: No
CnqP3PT: prenyltransferase, Accession: WP_047018069.1, SEQ ID NO: 16 (protein, listed as Streptomyces sp.) MSGAADVERVYSAMEEAARLLDITVSREKVRPALEAYHEVLADAVVVFSMASGRYATELDFSISVPAEAGDPYRVALAKGLTPRTDHPVGRLLADTQEHCPVSMFAFDGEITGGFKKTYAFFPTNDLQSASKLAEIPSMPDSVKENADLFARYGLDKVQMTSIDYKKKAVNLYFSEMSPDILGPDTVRSMLRDMGLKETGETGLTFARRSFSVYPTLNWETGRIERLCFAVISRDPTLAPAERAEDLAKFSKYANNAPYAYAGEARTLVYGLTLTPREEYYKLGSYYQISDIQRKLLKAFDSLND :: No

--- query ---
Field request: presence of cyclolavandulylated product, Aromatic Compound (Substrate) Tryptophan | item: Sr1310PT: prenyltransferase, Accession: WP_057602682.1, SEQ ID NO: 12 (protein, listed as Streptomyces sp.) MSGAADVERVYAAMEEAAGLLDVSCAREKIYPLLTVFQDTLTDGVVVFSMASGRRSTELDFSISVPVSQGDPYATVVKEGLFQATGSPVDELLADTVAHLPVSMFAIDGEVTGGFKKTYAFFPTDDMPGVAQLAAIPSMPASVAENAELFARYGLDKVQMTSMDYKKRQVNLYFSDLKQEYLQPESVVALARELGLRVPGELGLEFCKRSFAVYPTLNWDTGKIDRLCFAAISTDPTLVPSEDERDIEMFRNYATKAPYAYVGEKRTLVYGLTLSSTEEYYKLGAYYHITDIQRQLLKAFDALED
No
